Tested on: A549 NSCLC
Experiment: NCI tumour cell line growth inhibition, 48 h
reported-property: TGI

The molecule listed as O=CC12C3CCC1C2C(=O)C3 (stereo unspecified) has a reported TGI of > 100 µM

The molecule listed as `Nc1nn2c(nc(N)c3c(N)[nH]nc32)c1N=Nc1ccc(Br)cc1` has a reported TGI of > 100 µM

The molecule listed as `Cc1ccc(/C(O)=C/c2nc3ccccc3s/c2=N/CS(=O)(=O)c2ccc(C)cc2)cc1` has a reported TGI of > 10 µM

The molecule listed as `C=C[C@@]1(O)CCCC2=C(C(=O)OCC)CC[C@]21C` has a reported TGI of > 100 µM

The molecule listed as CCC(CNc1cc(OC)cc2cccnc12)NC1CCCCC1 (stereo unspecified) has a reported TGI of > 100 µM

The molecule listed as `COc1ccc2nc3cc([N+](=O)[O-])ccc3c(NCCCN(C)C)c2c1` has a reported TGI of 10.1 µM

----------
Test system: SNB-19 CNS
Test: NCI tumour cell line growth inhibition, 48 h
reported-property: GI50

The compound listed as `Cc1nc(N2CCC3(CC2)CO[C@@H](C)[C@H]3N)c(CO)nc1Sc1ccnc(N)c1Cl` has a reported GI50 of 14.8 µM

The compound listed as CCN(CC)CCCC(C)N=C(C1=C(C(=NC(C)CCCN(CC)CC)c2cccc(OC)c2)C(=O)NC1=O)c1cccc(OC)c1 (stereo not drawn) has a reported GI50 of 3.71 µM

The compound listed as `COc1ccc(/C=N\Nc2ccc([N+](=O)[O-])cn2)cc1OC` has a reported GI50 of 27 µM

----------
Could you please report measured GI50 for the items listed next?
System: NCI-H522 lung
Assay: NCI tumour cell line growth inhibition, 48 h

The compound listed as COc1nc(N)nc2c1ncn2C1OC(CO)C(O)C1O (stereo not drawn) has a reported GI50 of > 5000 µM

The compound listed as `Cc1ccc(N(CC(=O)Nc2ccc(S(=O)(=O)N3CCC(N4CCCC4)CC3)cc2)S(=O)(=O)c2ccc(Cl)cc2)cc1` has a reported GI50 of 1.89 µM

The compound listed as OCC(O)c1nc2ccc3[nH]ncc3c2c2c1CCCC2 (stereo not drawn) has a reported GI50 of 1.5 µM

The compound listed as CC(C)(C)[Si](C)(C)OC1[C@@H](O[Si](C)(C)C(C)(C)C)[C@@H](CNC(=O)NC(=O)CCl)O[C@H]1n1cnc2c(NC(=O)Nc3ccccc3)ncnc21 (stereo partly drawn) has a reported GI50 of 0.096 µM

The compound listed as `COc1cccc(/C=C/C(=O)c2ccc(Cl)cc2Cl)c1` has a reported GI50 of 18 µM

The compound listed as `Nc1nc(N)c2cc(NCc3ccc(Cl)c(Cl)c3)ccc2n1` has a reported GI50 of 1.31 µM

The compound listed as `O=Cc1ccc(-c2ccc(-c3nc4ccccc4o3)cc2)o1` has a reported GI50 of 24.4 µM

The compound listed as `CC(=O)[CH-]C(=O)c1ccccc1.CC(=O)[CH-]C(=O)c1ccccc1.CCOCC[O-].CCOCC[O-].[Ti+4]` has a reported GI50 of 17 µM

The compound listed as `COc1ccccc1CNCCCN1C(=O)c2ccc3c4c(ccc(c24)C1=O)C(=O)N(CCCCNCCCN)C3=O` has a reported GI50 of 1.46 µM

The compound listed as `COc1ccc(OC)c(-c2cc(-c3ccc(Cl)cc3)nn2-c2ccc(S(=O)(=O)NC(C)=O)cc2)c1` has a reported GI50 of 32.4 µM

The compound listed as `Cn1c2ccc(Br)cc2c2c3c(c4c5ccccc5[nH]c4c21)C(=O)N(O)C3=O` has a reported GI50 of 0.0506 µM

The compound listed as `CN1C(=O)N[C@H]2[C@@H]3NC(=O)c4ccc(Br)n4[C@@H]3C[C@]21O` has a reported GI50 of 0.0384 µM

The compound listed as `COC(=O)c1cc(O)c2c(c1C(=O)OC)C[C@H]1[C@@H]3CC=C4C[C@@H](O)CC[C@]4(C)[C@H]3CC[C@]21C` has a reported GI50 of 2.17 µM
